Let's look at some molecules and their measured drug sensitivity score.
System: Calu-3
Experiment: drug sensitivity score (DSS) for viability; higher = more toxic; extreme values may be limits of the assay
Details: 72 h
Assay Endpoint: drug sensitivity score

> print(dat)
                                    molecule  value.observed
 1  CCS(=O)(=O)N(Cc1cccnc1)c1cccc(-c2ccc(C#N)cc2)c1 [CBiPES]               0
 2  CCCc1ncc(C[n+]2ccccc2C)c(N)n1 [amprolium]               0
 3  O=C(O)CNC(=O)C(CS)Cc1ccccc1 (stereo not given) [thiorphan]               0
 4  CCCN(CCC)S(=O)(=O)c1ccc(C(=O)O)cc1 [probenecid]               0
 5  Cc1cc(NS(=O)(=O)c2ccc(N)cc2)no1 [sulfamethoxazole]               0
 6  COCCCOc1cc(C[C@@H](C[C@H](N)[C@@H](O)C[C@H](C(=O)NCC(C)(C)C(N)=O)C(C)C)C(C)C)ccc1OC [aliskiren-hemifumarate]               0
 7  Nc1nccc(-c2c(-c3ccc(F)cc3)ncn2C2CCCCC2)n1             3.7
 8  CCC(C)(C)c1ccc(CC(C)CN2C[C@@H](C)O[C@@H](C)C2)cc1 (stereo not given in full) [amorolfine]               0
 9  CC(C)C(=O)OC[C@@]1(N=[N+]=[N-])O[C@@H](n2ccc(N)nc2=O)[C@H](OC(=O)C(C)C)[C@@H]1OC(=O)C(C)C [balapiravir]               0
10  NC1=NC(=O)N([C@H]2C[C@H](O)[C@@H](CO)O2)CN1 [KP-1212]               0
11  C=CCNc1nc(NCC=C)nc(N2CCN(C(c3ccc(F)cc3)c3ccc(F)cc3)CC2)n1 [almitrine]               0
12       O=C(O)CCNC(=O)c1ccccc1 [betamipron]               0
13  Cn1ncnc1[C@H]1c2n[nH]c(=O)c3cc(F)cc(c23)N[C@@H]1c1ccc(F)cc1 [talazoparib]             6.3
14  O=C(Nc1ccc([N+](=O)[O-])cc1Cl)c1cc(Cl)ccc1O [niclosamide]             0.6
15  CN[C@@H]1[C@H](O)[C@H](NC)[C@H]2O[C@@]3(O)C(=O)C[C@@H](C)O[C@H]3O[C@@H]2[C@H]1O [spectinomycin]               0
16  c1cc(CN2CCCNCCNCCCNCC2)ccc1CN1CCCNCCNCCCNCC1 [plerixafor]               0
17  O=c1c(O)c(-c2ccc(O)c(O)c2)oc2cc(O)cc(O)c12 [quercetin]             0.8
18  CCOc1cc(N)c(Cl)cc1C(=O)NCC1CN(Cc2ccc(F)cc2)CCO1 (stereo not given) [mosapride]               0
19  CC(=O)O[C@]1(C(C)=O)CC[C@H]2[C@@H]3C[C@H](C)C4=CC(=O)CC[C@]4(C)[C@H]3CC[C@@]21C [medroxyprogesterone-acetate]               0
20  CC(=C(CCO)SSCC1CCCO1)N(C=O)Cc1cnc(C)nc1N (stereo in doubt) [fursultiamine]               0
21  CC(C)n1nccc1-c1ncccc1COc1cccc(O)c1C=O [voxelotor]               0
22  CC(=O)[C@H]1CC[C@H]2[C@@H]3CC[C@H]4C[C@H](O)CC[C@]4(C)[C@H]3CC[C@]12C [allopregnanolone]               0
23           CC(=O)NO [acetohydroxamic-acid]               0
24  O=C(O)c1nc(=O)[nH]c(=O)[nH]1 [oxonic-acid]               0
25  CN1CCN(CCOc2cc(OC3CCOCC3)c3c(Nc4c(Cl)ccc5c4OCO5)ncnc3c2)CC1 [saracatinib]              12
26  Cc1ccccc1-n1c(CF)nc2ccc(N)cc2c1=O [afloqualone]               0
27  CN1C(=O)C[C@@H](C(=O)N[C@@H](Cc2c[nH]cn2)C(=O)N2CCC[C@H]2C(N)=O)NC1=O [taltirelin]             0.5
28  Cc1c(NC(=O)c2cc3c(s2)CCCC3)cccc1-c1cn(C)c(=O)c(Nc2ccc(C3C(=O)N(C)CCN3C)cc2)n1 (stereo in doubt) [GDC-0834]               0
29       Cc1cnc(C(=O)O)c[n+]1[O-] [acipimox]               0
30  O.O=[Si]=O.O=[Si]=O.O=[Si]=O.O=[Si]=O.[O]=[Mg].[O]=[Mg].[O]=[Mg] [Talc]             0.2
31  CC(=O)O[C@H]1CC[C@@]2(C)C(=CC[C@@H]3[C@@H]2CC[C@]2(C)C(=O)CC[C@@H]32)C1 [prasterone-acetate]               0
32  CCCCCCCCCCCCOS(=O)(=O)O [dodecyl-sulfate]               0
33  O=C1[C@H]2CCCC[C@H]2C(=O)N1CCCCN1CCN(c2nsc3ccccc23)CC1 [perospirone]               0
34  Nc1ccc(S(=O)(=O)Nc2nccs2)cc1 [sulfathiazole]               0
35  CCNCC(O)c1cccc(O)c1 (stereo not given) [etilefrine]               0
